- Test system: HOP-62 NSCLC
- protocol.description: NCI-60 one-dose screen, 48 h (100 = growth as untreated, 0 = no growth, -100 = all killed)
- condition.parameters: 10 µM unless noted
About 83,000 compounds went through this panel and 20% of them were active in at least one assay; those are over-represented in the sample as a whole.
metric.name: growth (%)
Enter your answer as a number in %; do not include the unit.

Some entries whose results are on file:
> print(dat)
                                   compound  experimental.target  metric.name  recorded.number
1  C[C@]12CC[C@@H]3c4ccc(O)c([N+](=O)[O-])c4CC[C@H]3[C@@H]1CC[C@@H]2NS(=O)(=O)c1ccc(C(F)(F)F)cc1         HOP-62 NSCLC       growth             56.2
2  CC/C(=C\c1ccc(N(C)C)cc1)c1nc2ccccc2c(=O)[nH]1         HOP-62 NSCLC       growth              108
3        CCCCCCCCCCCCCCCCN=C(CC(=O)O)C(=O)O         HOP-62 NSCLC       growth              106

Now, please, on to the next compound.
Inquiry: Consider the compound COc1cc(C2CC(=O)Nc3c2cc(Br)c2ccccc32)cc(Br)c1OC (stereo not given) and give its measured growth.
Reply text: 24
